method_notes: Antiinvasive activity against mouse 26-L5 cells at 1 ug/ml
Type: functional
quantity: Activity (%)
Give bare numbers, in %.

entry_smiles: O=C(OC[C@H]1O[C@H](O[C@H]2O[C@H](COC(=O)c3cccc(O)c3O)[C@@H](O)[C@H](O)[C@H]2O)[C@H](O)[C@@H](O)[C@@H]1O)c1cccc(O)c1O
Activity (%): 40
--
entry_smiles: O=C(OC[C@H]1O[C@H](O[C@H]2O[C@H](COC(=O)c3ccccc3O)[C@@H](O)[C@H](O)[C@H]2O)[C@H](O)[C@@H](O)[C@@H]1O)c1ccccc1O
Activity (%): 35
--
entry_smiles: O=C(OC[C@H]1O[C@H](O[C@H]2O[C@H](COC(=O)c3ccccc3)[C@@H](O)[C@H](O)[C@H]2O)[C@H](O)[C@@H](O)[C@@H]1O)c1ccccc1
Activity (%): 51

Inquiry: Given `Cc1cc(O)cc(O)c1C(=O)OC[C@H]1O[C@H](O[C@H]2O[C@H](COC(=O)c3c(C)cc(O)cc3O)[C@@H](O)[C@H](O)[C@H]2O)[C@H](O)[C@@H](O)[C@@H]1O` , state its recorded Activity.
Reply text: 59

###

method_notes: Antiinvasive activity against mouse 26-L5 cells
Format: functional, cell-based
quantity: IC50
Write down the value, and be sure its unit follows.

Inquiry: Given `Cc1cc(O)cc(O)c1C(=O)OC[C@H]1O[C@H](O[C@H]2O[C@H](COC(=O)c3c(C)cc(O)cc3O)[C@@H](O)[C@H](O)[C@H]2O)[C@H](O)[C@@H](O)[C@@H]1O` , state its recorded IC50.
Reply text: 390 nM
